test-protocol: Metabolic stability in mouse liver microsomes assessed as half life preincubated for 5 mins followed by NADPH addition measured upto 60 mins by LC-MS/MS analysis
Assay type: ADME, Microsome
Examples of compounds with documented half-life follow.
Numbers only; they are read as min.

{"mol-smiles": "CCCOC(=O)N1CCN(C(=O)c2ccc3c(Cl)cc(-c4ccc(C5(N)CC5)cc4)nc3c2)C[C@H]1C", "observable": "half-life", "scale-unit": "min", "measurement": 52}
{"mol-smiles": "CCCOC(=O)N1CCN(C(=O)c2ccc3c(Cl)ccnc3c2)CC1", "observable": "half-life", "scale-unit": "min", "measurement": 1}
{"mol-smiles": "CCCOC(=O)N1CCN(C(=O)c2ccc3c(Cl)cc(-c4ccccc4)nc3c2)C[C@H]1C", "observable": "half-life", "scale-unit": "min", "measurement": 16}
{"mol-smiles": "CCCOC(=O)N1CCN(C(=O)c2ccc3c(Cl)cc(-c4ccc(C(=O)NC)cc4)nc3c2)CC1", "observable": "half-life", "scale-unit": "min", "measurement": 46}
{"mol-smiles": "CCCOC(=O)N1CCN(C(=O)c2ccc3c(Cl)cc(-c4ccccc4)nc3c2)CC1", "observable": "half-life", "scale-unit": "min", "measurement": 13}
{"mol-smiles": "CCOC(=O)N1CCN(C(=O)c2ccc3c(Cl)c4c(nc3c2)CCCC4)CC1", "observable": "half-life", "scale-unit": "min", "measurement": 4}

Bench note: what half-life did CCCOC(=O)N1CCN(C(=O)c2ccc3c(Cl)cc(-c4ccc(C)cc4)nc3c2)CC1 show?
41

Bench note: what half-life did CCCOC(=O)N1CCN(C(=O)c2ccc3c(Cl)cc(-c4ccc(OC)cc4)nc3c2)CC1 show?
22

====

Examples of molecules with documented Ki follow.
assay-target: Histone-lysine N-methyltransferase SMYD3 (Homo sapiens)
Sequence (Q9H7B4 whole entry): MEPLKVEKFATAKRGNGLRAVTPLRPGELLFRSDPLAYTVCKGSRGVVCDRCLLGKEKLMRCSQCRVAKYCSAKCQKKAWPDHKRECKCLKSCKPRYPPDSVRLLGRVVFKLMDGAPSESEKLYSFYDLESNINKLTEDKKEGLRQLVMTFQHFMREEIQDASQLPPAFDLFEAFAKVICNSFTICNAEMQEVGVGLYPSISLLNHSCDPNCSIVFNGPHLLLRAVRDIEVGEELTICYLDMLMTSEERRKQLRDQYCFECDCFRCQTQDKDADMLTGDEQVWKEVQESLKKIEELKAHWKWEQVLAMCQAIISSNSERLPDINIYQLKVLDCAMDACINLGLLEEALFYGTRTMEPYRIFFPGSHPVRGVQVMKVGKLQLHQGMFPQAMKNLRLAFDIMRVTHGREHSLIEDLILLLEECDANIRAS
test-protocol: Irreversible inhibition of SMYD3 (unknown origin) using MAP3K2 peptide as substrate pretreated for 5 mins followed by substrate addition and measured after 60 mins by MTase Glo reagent based luminescence assay
Write the quantity with the unit trailing the number.

# annotated cases, reported Ki shown
{"mol-smiles": "CCCOC(=O)N1CCN(C(=O)c2ccc3c(Cl)cc(-c4ccc(C5(N)CC5)cc4)nc3c2)C[C@H]1C", "Ki": "0.44 µM"}
{"mol-smiles": "CCCOC(=O)N1CCN(C(=O)c2ccc3c(Cl)cc(-c4ccc(C(=O)NC)cc4)nc3c2)CC1", "Ki": "3.06 µM"}

Bench note: what Ki did CCCOC(=O)N1CCN(C(=O)c2ccc3c(Cl)cc(-c4ccccc4)nc3c2)CC1 show?
3.9 µM
